test system: K-562 leukemia; assay: NCI-60 one-dose screen, 48 h (100 = growth as untreated, 0 = no growth, -100 = all killed); conditions: 10 µM unless noted
The panel holds about 83,000 compounds, 20% with a hit somewhere; the sample as a whole holds those more often.
Readout type: growth (%)
Give your result in % as a bare value.

- Smiles input: "Clc1ccc(/C=N\\N=C\\c2ccc(Cl)c(Cl)c2)cc1Cl"
  Study system: "K-562 leukemia"
  growth [%]: 88.8
- Smiles input: "C#Cc1c2c(c(OC)c3c1OCO3)[C@H]([C@H]1OC(=O)c3c1ccc(OC)c3OC)N(C)CC2"
  Study system: "K-562 leukemia"
  growth [%]: 31.2
- Smiles input: "O=C1C(Cl)=C(Nc2ccc(S(=O)(=O)N3CCOCC3)cc2)C(=O)c2ccccc21"
  Study system: "K-562 leukemia"
  growth [%]: 6.71

Please list growth recorded for the compound COc1ccc(C/C(C)=C(/c2ccc(OCCN(C)C)cc2)c2ccc(OC(=O)NCc3ccccc3)cc2)cc1 -29.2

Please list growth recorded for the compound Cn1ccc(=O)c(C(=O)Nc2nsc3ccc([N+](=O)[O-])cc23)c1 78.3

Please list growth recorded for the compound Cc1[nH]c(C(=O)Nc2ccccc2OC2CCNCC2)c(Cl)c1Cl -2.5

###

The following compounds are listed with their measured growth values.
tested on: OVCAR-5 ovarian; experiment: NCI-60 one-dose screen, 48 h (100 = growth as untreated, 0 = no growth, -100 = all killed); settings: 10 µM unless noted
About 83,000 compounds went through this panel and 20% of them were active in at least one assay; those are over-represented in the sample as a whole.
Give your result in % as a bare value.

Examples from the recorded data:
- Compound: "Cc1ccc2c(n1)C(=O)C(Br)=C(CC(C)C)C2=O"
  Study system: "OVCAR-5 ovarian"
  growth, %: 102
- Compound: "CC(C)=CCC[C@](C)(O)[C@H]1CC[C@]2(C)[C@@H]1CC[C@@H]1[C@@]3(C)C/C(=C/c4ccco4)C(=O)C(C)(C)[C@@H]3CC[C@]12C"
  Study system: "OVCAR-5 ovarian"
  growth, %: 102
- Compound: "O=C(Nc1cccc(-c2ccc(N3CCOCC3)nn2)c1)Nc1cccc(C(F)(F)F)c1"
  Study system: "OVCAR-5 ovarian"
  growth, %: 125
- Compound: "O=C1/C(=C/c2ccccc2Br)COc2ccc(O)cc21"
  Study system: "OVCAR-5 ovarian"
  growth, %: 91.9
- Compound: "O=C(/C=C(/C=C/c1ccc2[nH]ccc2c1)OB(F)F)/C=C/c1ccc2[nH]ccc2c1"
  Study system: "OVCAR-5 ovarian"
  growth, %: 15.4

Please list growth recorded for the compound Fc1cccc(Oc2ccc(Nc3ncnc4ccc(OCCCN5CCOCC5)cc34)cc2Cl)c1 78.1

Please list growth recorded for the compound Cc1cc(N2CCCCC2)cc(C)c1-c1csc(NC(=O)c2ccncc2)n1 92.6

Please list growth recorded for the compound CCSc1nc2scc(C)c2c(=O)[nH]1 99.8

###

system: A549/ATCC NSCLC; test: NCI-60 one-dose screen, 48 h (100 = growth as untreated, 0 = no growth, -100 = all killed); conditions: 10 µM unless noted
About 83,000 compounds went through this panel and 20% of them were active in at least one assay; those are over-represented in the sample as a whole. Calls of active or inactive are those of the source. Rule for the calls: active = growth percent below 10; inactive = the rest.
Readout type: growth

- Smiles input: "O=C(c1ccccc1)c1ccc(C2CCCCC2)cc1"
  Readout type: "growth"
  Result: "98% (inactive)"
- Smiles input: "CCCCCC(/C=N\\NC(=S)N/N=C/C(=C/c1ccccc1)CCCCC)=C\\c1ccccc1"
  Readout type: "growth"
  Result: "74.8% (inactive)"
- Smiles input: "Cc1ccccc1/C=C/C(=O)c1cccc(OCCCOc2cccc(C(=O)/C=C/c3ccccc3C)c2)c1"
  Readout type: "growth"
  Result: "86% [3 µM] (inactive)"

Please find the next molecule below.
Please list growth recorded for the molecule Cc1c(-c2ccc(O)cc2)n(Cc2ccc(OCCN3CCCCCC3)cc2)c2ccc(O)cc12 72.5% (inactive)
